System under test: G140S+Q148H mutant HIV-1 IN-DNA complexes (Human immunodeficiency virus type 1 group M subtype B, UniProt P04585, G1287S/Q1295H)
Cond: 37°C; single exponential decay
Readout: Apparent t1/2, G140S+Q148H (h)
Number in h, nothing else.

>  <Compound>
O=C(NCc1c(F)cc(F)cc1F)c1cn2c(c(O)c1=O)C(=O)N1[C@@H]3CC[C@@H](C3)O[C@H]1C2 [Compound 2]

>  <Readout units>
h

>  <Apparent t1/2, G140S+Q148H>
1.7

$$$$

Per the records, this compound ( O=C(NCc1c(F)cc(F)cc1F)c1cn2c(c(O)c1=O)C(=O)N1[C@H]3CC[C@H](C3)O[C@@H]1C2 [BIC, bictegravir] ) has Apparent t1/2, G140S+Q148H equal to 5.7

Per the records, this compound ( O=C(NCc1ccc(F)cc1F)c1cn2c(c(O)c1=O)C(=O)N1[C@H]3CC[C@H](C3)O[C@@H]1C2 [Compound 1] ) has Apparent t1/2, G140S+Q148H equal to 4.8

Per the records, this compound ( C[C@@H]1CCO[C@H]2Cn3cc(C(=O)NCc4ccc(F)cc4F)c(=O)c(O)c3C(=O)N12 [DTG, dolutegravir] ) has Apparent t1/2, G140S+Q148H equal to 1.9

----------
Test system: HIV-1 G140S+Q148H
Assay protocol: Antiviral activity against G140S+Q148H HIV-1 in the MT-2 cell line
Type: cell-based
Cond: Human immunodeficiency virus 1, MT2
pEC50: −log10 of the molar value.
Parameter threshold = 8. Response is fulfilled when pEC50 meets or exceeds it, else not fulfilled.

Illustrative cases are given below, each with its answer.
>  <Smiles text>
COc1cc2c(cc1Cc1cccc(Cl)c1F)c(=O)c(C(=O)O)cn2[C@H](CO)C(C)C

>  <Classification>
not fulfilled

$$$$
>  <Smiles text>
O=C(NCc1c(F)cc(F)cc1F)c1cn2c(c(O)c1=O)C(=O)N1[C@H]3CC[C@H](C3)O[C@@H]1C2

>  <Classification>
fulfilled

$$$$
>  <Smiles text>
O=C(NCc1ccc(F)cc1F)c1cn2c(c(O)c1=O)C(=O)N1[C@H]3CC[C@H](C3)O[C@@H]1C2

>  <Classification>
fulfilled

$$$$

# evaluate next
State whether the measured pEC50 reaches 8, counting equality as reaching it, for Cc1nnc(C(=O)NC(C)(C)c2nc(C(=O)NCc3ccc(F)cc3)c(O)c(=O)n2C)o1
not fulfilled
